Origin of measurements: the supplement of paper PMC9170038

So I've got a bunch of sequences here, and I need their apparent KD of K4 kissing-loop reporter values.
- Tested on: K4 kissing-loop RNA reporter;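 note: bound reporter read as fluorescence of individual clusters on recovered sequencing chips by microscopy, with normalized cluster intensities fitted with a binding model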
- Method: apparent KD of K4 kissing-loop reporter; higher = weaker reporter binding
- Conditions Used: Eterna round: R107; input ligand: theophylline 20 uM
Give the value, in units of nM, as a plain number.

Briefly, apparent KD of K4 kissing-loop reporter measured for UGACUGGACUGAAGGAGCGCUAAACUCCUAGUGAUGUUAGGAUAACGAGACAAAGUCUCGAGGCAGGUAGGUCGCAGUCUAGUCU : 137

Briefly, apparent KD of K4 kissing-loop reporter measured for UGAUAGGACAGAAGGAGCGGGAGUGAUGUUCCCAAAAGUAUAAGGUGUCAAAAGACACCCUCCCAGGUAGGUCGCUGUCCUAUCU : 302

Briefly, apparent KD of K4 kissing-loop reporter measured for UGACUACAAAAGGAAUAAUCCUAGUGAUGUUAGGAUAUGCUGAUAAGCAGAAGGAACGGAGAUCGAAAGAUCUCAAAUGUAGUCU [whbob_Ex_FMNA__2th191] : 112

Briefly, apparent KD of K4 kissing-loop reporter measured for AAGCAGUCACUCGUAACCAUCGAAGAUGGUCGAGGACCGGUACGGCCGCCACUCGGAGUGAUGUUCCGAAGACUGCAAAAUAAAA [#SwitchBubble 12] : 292

Briefly, apparent KD of K4 kissing-loop reporter measured for GGAUCCACCAGUGAUGUUGGAGAAAACUCCAAGGAUAUGACGAAAGUCAGAAGGUGGUAAUAAGACGUCAAAGACGUCGGAUCCA [FmnA 19 #SwitchBubble #K4Early] : 323

Briefly, apparent KD of K4 kissing-loop reporter measured for GGUGUUGUUUGUGCUGUUUUCUUCGUUUCUCGAGGACCGGUACGGCCGCCACUCGAGUGAUGUUUGGGUAGCGAUGUUUGUUAGU [Bdazzled - #3 - Exc. Tryptophan A] : 360

Briefly, apparent KD of K4 kissing-loop reporter measured for UUGGCUGGACGGGAUACCAGCCAAAUCGUGUGCUUAGGAUGUCUAAGAGCCAGUGAUGUUGGCCCUUGGCAGCCCUCCUAGCUUG [Ordigear] : 124

Briefly, apparent KD of K4 kissing-loop reporter measured for CUCGUGGGUUUGAGAGGGCUUGUGGGAAGUAAGGAUAUUUAGGGAGGAAGAAGGUACUAUAGAAUAUAGUGAUGUUAUAUAUGGG [SSFMNA.Y] : 406

Briefly, apparent KD of K4 kissing-loop reporter measured for UAAUUUAUGUCUUUAAUAUAAUUUUCAGAUACCAGUGAUUAUUAACACCCUUGGCAGCUGUGUAGAGUGAUGUUCUCAUGCUUAA [#07 K4 Theophylline A Exclusion] : 373

Briefly, apparent KD of K4 kissing-loop reporter measured for AAACGUUGGUGCGAUACCAGCUUGCGCGGAAAACGCGCUACUGGAGUGAUGUUCCUAAAUAGCCCUUGGCAGCGCACCGACGAAA [MAT - Same State Theophlline B - Mod of Eli - D9] : 107
